Test system: MS2 coat protein
Test description: apparent KD of MS2 coat protein; designed switch direction (-1 OFF switch, 1 ON switch): -1; higher = weaker reporter binding
Condition notes: input ligand: none
Property measured: apparent KD of MS2 coat protein (nM)

• ACAAGCGUUAAGGAUAUACUGCCCUCAUUCUCGGUAGAAGGUAACACUUGAGGAUCACCCAAGUGAAAACCUGA [Erxeesis] (Eterna round: R97, puzzle: Exclusion 6) = 9.67
• CGAGCUGGAGUGAGGAUAUCGUGUUCGAAAGAACGUGAGAAGGCACAUGAGGAUCACCCAUGUGAUUCAGCUCG [Omei Ex4B A4] (Eterna round: R97, puzzle: Brourd's mod of Exclusion 4) = 20.1
• CCGAAGUCCUGCGGAGUUCACAUGAGGAUCACCCAUGUAGGCGAGGAUAUUUAUGAUACAUGAGUAAAGAAGGCGUCUGGUAAA [Eternabot solution 26] (Eterna round: R96, puzzle: Exclusion NG 3) = 29.1
• GCCUCACAUGAGGAUCACCCAUGUCAGGAUAUAGGAGACGGCAGAAAUCCUGCCAUCGCUAGAAGGGACUGGCA [Tirebi] (Eterna round: R96, puzzle: Exclusion 1) = 67
• ACAUGAGGAUCACCCAUGUGAAACCAAUGGCUGACUUUGAGCUAGGAUAUUCGUGCAUAUCAAACGAAGAAGGAGCAUUACUGG [Deportation 97 - Jieux - Exclusion NG 3] (Eterna round: R96, puzzle: Exclusion NG 3) = 34.8
• AUAUUAAUAGUAAGGAUAUGCGUAUAUAUAGUUAUGCAGAAGGUACAUGAGGAUCACCCAUGUAUUAAUGUGUA [LRO-BmodExc4-03-Oppy's Opus] (Eterna round: R97, puzzle: Brourd's mod of Exclusion 4) = 14.3
• AAUUUACAUGAGGAUCACCCAUGUGAGGAUAUAUACAAAGAAGUGUUAUUAAGAAUGUAUAGAAGGCGCGUGAU [JR_Exc1_Sub039] (Eterna round: R97, puzzle: Exclusion 1) = 62
• CUGAAAGACGAAGGAUAUCCAGGCACCGGAGUAGGAGAAGGUCGUCCGGGUGUCCUAGAACUUGAGGAUCACCCAAGUAGAAGA [Mutated MS2 EX1.5] (Eterna round: R96, puzzle: Exclusion NG 1) = 24.7

Provenance of the data: the supplement of paper PMC9170038
